Tested on: HT29 colon
procedure.summary: NCI tumour cell line growth inhibition, 384-well format
Field: TGI. Provide a value for each of the compounds that follow.
Give bare numbers, in µM.

The cases that follow already have their TGI on record.
CC1=C(CO)C2=C(C)C3(CC3)[C@@](C)(O)C(=O)C2=C1	0.395
Cn1c(Nc2ccc(C(F)(F)F)cc2)nc2cc(Oc3ccnc(-c4ncc(C(F)(F)F)[nH]4)c3)ccc21	13.7

We now examine a further compound.
// TGI lookup, key: "CN(C)C/C=C/C(=O)Nc1cc2c(Nc3ccc(F)c(Cl)c3)ncnc2cc1O[C@H]1CCOC1"
11.4

----------
Tested on: UACC-62 melanoma
procedure.summary: NCI tumour cell line growth inhibition, 384-well format
Field: TGI. Provide a value for each of the molecules that follow.

Cn1c(Nc2ccc(C(F)(F)F)cc2)nc2cc(Oc3ccnc(-c4ncc(C(F)(F)F)[nH]4)c3)ccc21	0.462 µM
CN1CC[C@@H](c2c(O)cc(O)c3c(=O)cc(-c4ccc(C(F)(F)F)cc4Cl)oc23)[C@@H]1CO	21.7 µM
C[C@H](Nc1cc(Cl)nc2c1cnn2[C@@H]1O[C@H](COP(=O)(O)CP(=O)(O)O)[C@@H](O)[C@H]1O)c1ccccc1F	> 100 µM

We now examine a further molecule.
// TGI lookup, key: "CN(C)C/C=C/C(=O)Nc1cc2c(Nc3ccc(F)c(Cl)c3)ncnc2cc1O[C@H]1CCOC1"
2.78 µM
